# TARGET: KIF5B-RET WT (Homo sapiens, UniProt P07949)
# Construct: KIF5B (fusion partner); the other entry of the earlier key: KIF5B (P33176, Kinesin-1 heavy chain)
# Sequence (P07949 with tags, fused parts or gaps): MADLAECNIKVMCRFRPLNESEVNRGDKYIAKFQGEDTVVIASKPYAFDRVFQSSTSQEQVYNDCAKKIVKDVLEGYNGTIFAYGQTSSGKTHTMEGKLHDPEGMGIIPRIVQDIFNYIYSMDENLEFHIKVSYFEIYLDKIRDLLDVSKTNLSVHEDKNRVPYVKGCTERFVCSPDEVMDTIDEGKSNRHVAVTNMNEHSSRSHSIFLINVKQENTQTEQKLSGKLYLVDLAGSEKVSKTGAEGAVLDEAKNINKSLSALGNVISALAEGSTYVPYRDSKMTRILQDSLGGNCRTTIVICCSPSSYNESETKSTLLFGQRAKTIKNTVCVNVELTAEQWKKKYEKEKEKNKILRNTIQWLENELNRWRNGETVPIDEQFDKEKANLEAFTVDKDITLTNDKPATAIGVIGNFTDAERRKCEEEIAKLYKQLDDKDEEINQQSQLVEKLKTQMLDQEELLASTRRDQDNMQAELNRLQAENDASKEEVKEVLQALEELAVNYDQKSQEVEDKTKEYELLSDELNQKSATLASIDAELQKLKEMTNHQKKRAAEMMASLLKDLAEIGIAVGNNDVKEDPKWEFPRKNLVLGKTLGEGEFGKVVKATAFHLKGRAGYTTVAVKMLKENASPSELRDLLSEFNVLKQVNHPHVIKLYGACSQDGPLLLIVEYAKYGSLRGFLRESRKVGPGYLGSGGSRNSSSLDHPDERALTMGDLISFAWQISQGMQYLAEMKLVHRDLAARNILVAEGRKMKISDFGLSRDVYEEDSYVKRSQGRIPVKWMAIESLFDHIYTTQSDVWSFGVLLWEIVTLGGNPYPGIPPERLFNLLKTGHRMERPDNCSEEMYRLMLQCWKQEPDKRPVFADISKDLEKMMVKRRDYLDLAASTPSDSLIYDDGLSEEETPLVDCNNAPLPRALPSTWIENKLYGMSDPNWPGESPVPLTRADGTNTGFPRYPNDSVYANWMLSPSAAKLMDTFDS
# ASSAY REMARKS: Cell viability assay (CellTiter-Glo) in BaF3 cells expressing KIF5B-RET (B/KR), WT
# REPORTED CONDITIONS: B/KR cell line, read-out: IC50 of RET mutants, WT
MEASURED ENDPOINT: pIC50
Note on pIC50: it is the negative log10 of concentration, concentration in mol/L.

>  <STRUCTURE STRING>
CN1CCN(Cc2ccc(NC(=O)c3cncc(C#Cc4cnc5[nH]ncc5c4)c3)cc2C(F)(F)F)CC1

>  <TARGET>
KIF5B-RET WT (Homo sapiens, UniProt P07949)

>  <pIC50>
8.77

$$$$

Now look at this entry.
Ask | Given the entry `CN1CCN(Cc2ccc(NC(=O)c3cncc(C#Cc4cnc(N)nc4)c3)cc2C(F)(F)F)CC1` , what pIC50 was observed with KIF5B-RET WT (Homo sapiens, UniProt P07949)?
Reply | 8.46

meta.source: patent US20260226039A1
